measurement.notes: Aqueous solubility
test.settings: water, 25 °C, pH 6.69, water
observable: solubility (mg/mL)
The answer is to be given in mg/mL; state only the numeric part.

For CCNC(C)Cc1cccc(C(F)(F)F)c1.Cl (racemic) [Fenfluramine HCl] the compound record lists solubility as 54.1

* * *

measurement.notes: Aqueous solubility
test.settings: pH 3.43 buffer, 37 °C, pH 3.43, aqueous buffer
observable: solubility (mg/mL)
The answer is to be given in mg/mL; state only the numeric part.

For CCNC(C)Cc1cccc(C(F)(F)F)c1.Cl (racemic) [Fenfluramine HCl] the compound record lists solubility as 62

* * *

measurement.notes: Aqueous solubility
test.settings: pH 6.41 buffer, 25 °C, pH 6.41, aqueous buffer
observable: solubility (mg/mL)
The answer is to be given in mg/mL; state only the numeric part.

For CCNC(C)Cc1cccc(C(F)(F)F)c1.Cl (racemic) [Fenfluramine HCl] the molecule record lists solubility as 37.4
